Experiment: Human microsome stability assay
Format: in vitro ADME
Settings: 1 μM test compound, 0.5 mg/mL protein
Procedure: The human microsomal stability assay is used for early assessment of metabolic stability of a test compound in human liver microsomes. Human liver microsomes (Cat. NO.: 452117, Corning, USA; Cat. NO.: H2610, Xenotech, USA) were preincubated with test compound for 10 minutes at 37° C. in 100 mM potassium phosphate buffer, pH 7.4. […] Following precipitation and centrifugation, the amount of compound remaining in the samples were determined by LC-MS/MS. […]
experimental readout: clearance in human liver microsomes

> print(dat)
                                   compound                 experimental.readout  measured.result
1  C[C@@H]1CN(c2ccc(Cl)c3ncccc23)C[C@H](C(=O)N[C@H]2CNC[C@H]2F)O1  clearance in human liver microsomes   6.15 mL/min/kg
2  Cc1ccc(N2C[C@@H](C)O[C@@H](C(=O)NC3CCN(C)CC3)C2)c2cccnc12  clearance in human liver microsomes   6.15 mL/min/kg
3  C[C@@H]1CN(c2ccc(Cl)c3ncccc23)C[C@H](C(=O)NC2CCCNCC2)O1 (stereo partly shown)  clearance in human liver microsomes   7.16 mL/min/kg
4  C[C@@H]1CN(c2ccc(C(F)(F)F)c3ncccc23)C[C@H](C(=O)N2CCC(N)C2)O1 (stereo partly shown)  clearance in human liver microsomes   6.15 mL/min/kg
5  C[C@@H]1CN(c2ccc(C(F)(F)F)c3ncccc23)C[C@H](C(=O)NC2CC3CNCC32)O1 (single isomer, unassigned) [Example 49C]  clearance in human liver microsomes   6.15 mL/min/kg
6  C[C@@H]1CN(c2ccc(C(F)(F)F)c3ncccc23)C[C@H](C(=O)NCC(C)(C)N)O1  clearance in human liver microsomes   6.15 mL/min/kg
7  C[C@@H]1CN(c2ccc(C(F)(F)F)c3ncccc23)C[C@H](C(=O)NC2C3CCC2CNC3)O1 (stereo partly shown)  clearance in human liver microsomes   6.15 mL/min/kg
